- target: SIRT7 (Homo sapiens, UniProt Q9NRC8)
- Construct: His-tagged full length SIRT7 protein expression from BL21 bacterial cells; His; made in house; host or cells: E. coli BL21
- assayExplanation: Bio-layer interferometry (BLI) binding assay
- runParameters: 0-40 μM, PBST pH 7.4
pKd: −log10 of the molar value.

compound	pKd
COC(=O)/C(=C\C(=O)c1ccc(O)c(O)c1)c1ccc(O)c(O)c1 [YZL-51N]	5.48

----------
- target: SIRT7 (Homo sapiens, UniProt Q9NRC8)
- Construct: His-tagged full length SIRT7 protein expression from BL21 bacterial cells; His
- Sequence (Q9NRC8 1-400): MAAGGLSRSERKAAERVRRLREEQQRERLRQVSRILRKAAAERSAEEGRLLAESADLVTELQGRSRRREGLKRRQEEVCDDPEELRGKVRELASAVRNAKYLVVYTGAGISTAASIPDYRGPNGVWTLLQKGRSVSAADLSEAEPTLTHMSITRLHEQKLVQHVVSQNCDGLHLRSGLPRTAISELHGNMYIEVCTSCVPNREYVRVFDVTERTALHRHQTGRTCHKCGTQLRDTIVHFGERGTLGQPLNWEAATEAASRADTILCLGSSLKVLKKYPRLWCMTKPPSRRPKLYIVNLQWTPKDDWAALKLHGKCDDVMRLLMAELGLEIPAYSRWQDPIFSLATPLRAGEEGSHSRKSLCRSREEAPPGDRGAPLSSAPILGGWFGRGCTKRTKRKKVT
- assayExplanation: Dot blot assay of SIRT7-mediated H3K18ac peptide deacetylation
- runParameters: read-out: Dot blot assay H3K18ac rescue EC50
Each entry below carries its recorded EC50.

compound	target	readoutUnit	EC50
COC(=O)/C(=C\C(=O)c1ccc(O)c(O)c1)c1ccc(O)c(O)c1 [YZL-51N]	SIRT7 (Homo sapiens, UniProt Q9NRC8)	µM	13.5
COC(=O)/C(=C\C(=O)c1ccc(OC)c(OC)c1)c1ccc(OC)c(OC)c1 [compound 6]	SIRT7 (Homo sapiens, UniProt Q9NRC8)	µM	70.2
O=C(O)/C(=C\C(=O)c1ccc(O)c(O)c1)c1ccc(O)c(O)c1 [compound 7]	SIRT7 (Homo sapiens, UniProt Q9NRC8)	µM	32

----------
Documented pKd across a set of compounds
- target: SIRT7 (Homo sapiens, UniProt Q9NRC8)
- Construct: His-tagged full length SIRT7 protein expression from BL21 bacterial cells; His; made in house; host or cells: E. coli BL21
- assayExplanation: Surface plasmon resonance (SPR) binding assay
- runParameters: immobilized His-SIRT7
pKd: −log10 of the molar value.
observable: pKd

compound	limitQualifier	readoutNumber
COC(=O)/C(=C\C(=O)c1ccc(O)c(O)c1)c1ccc(O)c(O)c1 [YZL-51N]	=	5.99
NC(=O)c1ccc[n+]([C@@H]2O[C@H](COP(=O)([O-])OP(=O)(O)OC[C@H]3O[C@@H](n4cnc5c(N)ncnc54)[C@H](O)[C@@H]3O)[C@@H](O)[C@H]2O)c1 [NAD^+]	<	3.70

----------
This section presents compounds with their documented inhibition at 50 µM values.
- target: SIRT7 (Homo sapiens)
- Construct: His-tagged full length SIRT7 protein expression from BL21 bacterial cells; His; made in house; host or cells: E. coli BL21
- Sequence (Q9NRC8 1-400): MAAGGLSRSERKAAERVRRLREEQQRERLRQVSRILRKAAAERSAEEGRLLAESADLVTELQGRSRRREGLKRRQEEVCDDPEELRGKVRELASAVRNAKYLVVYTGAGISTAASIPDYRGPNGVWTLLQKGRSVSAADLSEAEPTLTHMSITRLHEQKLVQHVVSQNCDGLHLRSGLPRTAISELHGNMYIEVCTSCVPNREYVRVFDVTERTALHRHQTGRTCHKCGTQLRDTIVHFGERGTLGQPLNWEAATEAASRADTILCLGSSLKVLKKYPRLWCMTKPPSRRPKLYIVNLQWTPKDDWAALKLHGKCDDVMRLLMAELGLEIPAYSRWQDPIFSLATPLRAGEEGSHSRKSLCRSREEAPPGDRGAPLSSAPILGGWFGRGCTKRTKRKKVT
- assayExplanation: Fluor de Lys (FDL) SIRT7 deacetylase assay
- Format: biochemical
- runParameters: 50 μM compound, 37°C, 90 min
observable: inhibition at 50 µM (%)

compound	observable	readoutNumber
COC(=O)/C(=C\C(=O)c1ccc(O)c(O)c1)c1ccc(O)c(O)c1 [YZL-51N]	inhibition at 50 µM	71.1
O=C(O)/C(=C\C(=O)c1ccc(O)c(O)c1)c1ccc(O)c(O)c1	inhibition at 50 µM	52.7
COc1ccc(C(C)=O)cc1OC	inhibition at 50 µM	47.5
COC(=O)/C(=C\C(=O)c1ccc(OC)c(OC)c1)c1ccc(OC)c(OC)c1	inhibition at 50 µM	12.3

----------
- Tested on: HT29
- assayExplanation: CCK-8 cell proliferation assay
- Type: cell-based
- runParameters: Homo sapiens, HT-29; HT29, 48 h
pIC50: −log10 of the molar value.

molecule	pIC50
COC(=O)/C(=C\C(=O)c1ccc(O)c(O)c1)c1ccc(O)c(O)c1 [YZL-51N]	4.32

----------
- target: SIRT7 (Homo sapiens, UniProt Q9NRC8)
- Construct: His-tagged full length SIRT7 protein expression from BL21 bacterial cells; His; made in house; host or cells: E. coli BL21
- assayExplanation: Fluor de Lys (FDL) SIRT7 deacetylase assay
- Format: biochemical
- runParameters: 0.5 mM NAD+, 10 μM peptide; read-out: FDL assay SIRT7 inhibition IC50
Reported IC50 values for the following molecules.

molecule	limitQualifier	IC50 (µM)
COC(=O)/C(=C\C(=O)c1ccc(O)c(O)c1)c1ccc(O)c(O)c1 [YZL-51N]	=	12.7
O=C(O)/C(=C\C(=O)c1ccc(O)c(O)c1)c1ccc(O)c(O)c1	>	30

Where do these numbers come from? They come from paper PMC11214487.
